Assay: chemical genetic growth profiling, strain panel (AID 1159580);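 further: tested at 20 µM; growth read once vehicle control cultures reached saturation at 30 °C; 1 = growth at the plate median or of vehicle wells; lower values mean less growth of the strain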
Conditions: S. cerevisiae deletion strains, growth OD, locus YDR150W, strain NUM1, active compounds read low
In all, about 5,500 compounds went through this assay and about 2,000 (36%) were called active. Inconclusive results (about 18%) are left out. This is one part of the list.
List of normalized growth values.
API doc: respond with a numeric literal and nothing else, no unit.

Solved cases (5 shown):
# molecule, property label, quantitative readout
records = [
    ("CCOC(=O)c1ccc(NC(=O)CCC(=O)O)cc1", "normalized growth", 0.99),
    ("Cc1cc(C)c(Cn2nc(C(C)(C)C)cc2C(=O)Nc2cccc(C(F)(F)F)c2)c(C)c1", "normalized growth", 1.16),
    ("CCOC(=O)NNc1nncc2ccccc12", "normalized growth", 1),
    ("N#CC(c1ccccc1)N1CCCCC1 (configuration not stated)", "normalized growth", 0.964),
    ("Cn1c(CSc2ccccc2)n[nH]c1=S", "normalized growth", 0.949),
]

For this molecule ( CC(=O)c1cc(CC=C(C)C)c(O)c(CC=C(C)C)c1 ), measured normalized growth is 0.969

For this molecule ( CCC(=O)c1ccc2c(c1)N(CCCN(C)C)c1ccccc1S2 ), measured normalized growth is 1.01

For this molecule ( NNC(=S)Nc1ccc2c(c1)OCCO2 ), measured normalized growth is 0.956

For this molecule ( CSc1sc(C#N)c2c1C(O)CCC2 (configuration not stated) ), measured normalized growth is 0.948

Origin of the recorded values: PubChem BioAssay AID1159580
